Examples of compounds with documented activity at 10 µM follow.
tested on: AR-V7 transcriptional activity; assay: MMTV-LUC luciferase reporter assay in 22RV1 cells, DHT− (screening and IC50); assay type: cell-based; conditions: Homo sapiens; 22RV1 cells, 10 uM, no DHT; control = 100
Reply numerically in %, unit not repeated.

Worked cases, answers included:
compound: CNC(=O)c1ccc(N2C(=S)N(c3ccc(C#N)c(C(F)(F)F)c3)C(=O)C2(C)C)cc1F [Enzalutamide]
scale-unit: %
activity at 10 µM: 79.4

compound: C[C@H]1[C@H](OC(=O)CCC(=O)O)O[C@@H]2O[C@@]3(C)CC[C@H]4[C@H](C)CC[C@@H]1[C@@]24OO3 [Artesunate]
scale-unit: %
activity at 10 µM: 108

compound: C[C@@H]1CC[C@H]2[C@@H](C)C(=O)O[C@@H]3O[C@@]4(C)CC[C@@H]1[C@]32OO4 [Artemisinin]
scale-unit: %
activity at 10 µM: 107

Determine from records and report activity at 10 µM for CCN(CCO)CCCC(C)Nc1ccnc2cc(Cl)ccc12 (stereo not drawn) [Hydroxychloroquinesulfate]
92.3

Determine from records and report activity at 10 µM for CC1CCCCCC(=O)c2c(O)cc(O)cc2CC(=O)O1 (stereo not drawn) [Curvularin]
76.8

Determine from records and report activity at 10 µM for CC1=CC(=O)c2c(O)cccc2C1=O [Plumbagin]
26

Determine from records and report activity at 10 µM for CC(=O)Oc1cccc2c1C(=O)c1c(OC(C)=O)cc(C(=O)O)cc1C2=O [1,8-Diacetoxy-3-carboxyanthraquinone]
101

Determine from records and report activity at 10 µM for COC(=O)[C@]12OC[C@]34[C@H]([C@@H](O)[C@@H]1O)[C@@]1(C)CC(=O)C(O)=C(C)[C@@H]1C[C@H]3OC(=O)[C@H](OC(=O)/C=C(\C)C(C)(C)OC(C)=O)[C@@H]24 [Bruceantinol]
81.2

All figures here come from patent US12295938B2.
